- Test system: Zymoseptoria tritici (SEPTTR-184)
- ASSAY EXPLANATION: Cyp51 dsRNA tile (fragment) foliar application bioassay (Example 6)
- Assay type: in vivo
- EXPERIMENTAL SETUP: 3 days curative; calculated from disease control
Attribute: ED80 (ppm) SEPTTR-184 3DC
TEST READOUT: ED80 (ppm) SEPTTR-184 3DC

[
  {
    "MOLECULE": "MgCyp51-T3: dsRNA tile of Zymoseptoria tritici Cyp51, 230 bp, location 450-679 (nucleic acid, listed as Zymoseptoria tritici) CGTCAAGTACGGCCTCACAACCTCTGCCCTCCAGTCCTACGTGACCTTGATCGCCGCCGAGACCCGCCAGTTCTTCGACCGCAACAACCCTCATAAGAAGTTCGCATCGACCAGCGGCACGATCGATCTCCCACCAGCCCTCGCCGAACTTACGATCTATACTGCCAGCCGATCATTGCAAGGAAAGGAAGTCCGCGAGGGCTTCGACTCGTCTTTCGCGGACCTCTACC",
    "TEST READOUT": "ED80 (ppm) SEPTTR-184 3DC",
    "TEST VALUE": ">200 ppm"
  },
  {
    "MOLECULE": "MgCyp51-T12: dsRNA tile of Zymoseptoria tritici Cyp51, 138 bp, location 1377-1514 (nucleic acid, listed as Zymoseptoria tritici) TGGCTACGGCCTGGTAAGCAAGGGCGCGGCGTCGCCATACTTACCCTTTGGTGCGGGACGACACAGATGTATCGGCGAGCAATTCGCGTACGTGCAATTGCAGACCATTACAGCGACGATGGTTCGCGATTTCAAGTT",
    "TEST READOUT": "ED80 (ppm) SEPTTR-184 3DC",
    "TEST VALUE": ">200 ppm"
  },
  {
    "MOLECULE": "MgCyp51-T5: dsRNA tile of Zymoseptoria tritici Cyp51, 133 bp, location 1316-1448 (nucleic acid, listed as Zymoseptoria tritici) AATACAAGCACCTGTCCCCGACGACTGCCCTAGGAAGCATCGCCGAGGAGAAAGAAGACTATGGCTACGGCCTGGTAAGCAAGGGCGCGGCGTCGCCATACTTACCCTTTGGTGCGGGACGACACAGATGTAT",
    "TEST READOUT": "ED80 (ppm) SEPTTR-184 3DC",
    "TEST VALUE": ">200 ppm"
  },
  {
    "MOLECULE": "MgCyp51-T10: dsRNA tile of Zymoseptoria tritici Cyp51, 172 bp, location 345-516 (nucleic acid, listed as Zymoseptoria tritici) GGACGTCAACGCGGAGGAGATATACAGCCCGCTGACCACTCCTGTCTTTGGCAAGGATGTGGTTTATGATTGTCCCAATTCGAAGCTCATGGAGCAGAAGAAGTTCGTCAAGTACGGCCTCACAACCTCTGCCCTCCAGTCCTACGTGACCTTGATCGCCGCCGAGACCCGC",
    "TEST READOUT": "ED80 (ppm) SEPTTR-184 3DC",
    "TEST VALUE": ">200 ppm"
  },
  {
    "MOLECULE": "MgCyp51-T2: dsRNA tile of Zymoseptoria tritici Cyp51, 165 bp, location 48-212 (nucleic acid, listed as Zymoseptoria tritici) CCAGACCAGCCTCTGGAAACTTGTCGGACTTGGATTCCTCGCCTTCAGCACGCTCGCCATCCTCCTCAATGTCCTCTCACAACTTCTCTTCCGTGGCAAGTTGTCCGATCCGCCACTCGTATTCCACTGGGTGCCCTTCATCGGAAGCACCATCACATACGGCAT",
    "TEST READOUT": "ED80 (ppm) SEPTTR-184 3DC",
    "TEST VALUE": "125 ppm"
  }
]
